- Test system: COLO 205 colon
- protocolNotes: NCI tumour cell line growth inhibition, 48 h
I'd be grateful if you could share measured TGI for these entries.

Guide cases for TGI, answers given:
Nc1n[n+]([O-])c2cnccc2[n+]1[O-]    > 100 µM
COc1cc(C2c3cc4c(cc3OC(N3CCOCC3)C2C)OCO4)cc(OC)c1OC (stereo not drawn)    > 71.3 µM

Now let's try a different one.
## Task What value of TGI has been recorded for this entry: COC(=O)NN=C1C(C)(C)C(=NNC(=O)OC)C1(C)C
## Result > 56 µM

====

I'd be grateful if you could share measured log10(TGI) for these entries.
- System: LOX IMVI melanoma
- protocolNotes: NCI tumour cell line growth inhibition, 48 h
In plain terms, each number is the log10 of measured TGI in µM.

Guide cases for log10(TGI), answers given:
CC(=O)Oc1cc(OC(C)=O)c2cc3c(cc2c1OC(C)=O)C(=O)C1(CCCC1)C3=O    1.53
Cc1sc2c(c1C)C(c1ccc(Cl)cc1)=N[C@@H](CC(=O)Nc1ccc(O)cc1)c1nnc(C)n1-2    0.80
COc1cc(OC)c(NC2=NCCO2)cc1Cl    2.00

Give log10(TGI) for each listed item.
1. COC(=O)C[C@](O)(CCC(C)(C)O)C(=O)O[C@@H]1C(OC)=C[C@]23CCCN2CCc2cc4c(cc2[C@H]13)OCO4
2. CC(C(O)c1ccccc1)[N+](=O)[O-] (stereo not given)
3. COc1cc(/C=N/O)nc(-c2ccccn2)c1
4. Cc1ccc(N2C(=O)C(O)=C(C(=O)C(C)(C)C)C2c2ccc([N+](=O)[O-])cc2)cc1 (stereo not given)
5. O=C(Nc1ccccc1)OCc1nc2c([nH]1)C(=O)C=CC2=O

## Result
[-0.37, 0.78, 1.03, 1.57, 1.49]

====

- Tested on: OVCAR-5 ovarian
- protocolNotes: NCI tumour cell line growth inhibition, 48 h
measuredProperty: TGI

CCOC(CN(C)C(=O)OCC(Cl)(Cl)Cl)OCC    > 100 µM
Cc1ccc(C(=O)/C=C/N2CCN(c3cccc(C(F)(F)F)c3)CC2)cc1    39.1 µM
Cc1cc2nc(NS(=O)(=O)c3cc(C)c(Cl)cc3S)[nH]c2cc1C    > 100 µM
Cc1cccc(NC(=O)Cc2nc3ccccc3s2)c1C    > 100 µM
O=C1C(Nc2cccc(O)c2)=C(Sc2ccc(Cl)cc2)C(=O)N1Cc1ccccc1    55 µM
NC(=O)C12CCC1C1CCCCC12N1CCOCC1 (stereo not given)    > 100 µM

Give TGI for each listed item.
1. Cn1nc2ccc3nccc(NCCNCCCl)c3c2n1
2. COc1ccc(-c2c(C(C)=O)c(-c3ccccc3)n(C3OC(COC(C)=O)C(OC(C)=O)C(OC(C)=O)C3OC(C)=O)c(=S)c2C#N)cc1O (stereo not given)

## Result
> 100 µM
> 100 µM

Give TGI for each listed item.
1. COc1cc(C2c3cc4c(cc3OC(N3CCOCC3)C2C)OCO4)cc(OC)c1OC (stereo not given)
2. ClC1=C(Cl)C(Cl)=C(Cl)C1=Cc1ccc(Cl)cc1Cl

## Result
> 65.7 µM
4.01 µM

====

I'd be grateful if you could share measured TGI for these entries.
- System: SF-295 CNS
- protocolNotes: NCI tumour cell line growth inhibition, 48 h

CCN1CCN(c2cc(C)nc(NCc3cc(Nc4ccnc5cc(Cl)ccc45)ccc3F)n2)CC1    5.96 µM
CC(=O)NNc1nc(C)c(C(/C=C/c2ccc(Cl)cc2)=N/NC(=S)NN)s1    > 100 µM
Nc1nc(SCc2ccccc2[N+](=O)[O-])c2[nH]cnc2n1    > 100 µM
Cn1nc2ccc3nccc(NCCNCCCl)c3c2n1    > 100 µM
CC(=O)O[C@@H]1CC2[C@@H](CCC3Cc4nc5c(nc4C[C@@]32C)CC2CC[C@@H]3C(CC[C@@]4(C)C3CC[C@@H]4C(C)CCCC(C)C)[C@@]2(C)C5)C2C[C@@H]3OC4(CCC(C)CO4)C(C)[C@@H]3[C@]21C (stereo not given in full)    > 100 µM

Give TGI for each listed item.
1. CCNC(=O)CCCCC(=O)c1c(C)[nH]c(/C=C2\N=C(c3ccc[nH]3)C=C2OC)c1C
2. COc1ccc(CCNC(=S)/N=C\C2=C(O)c3ccccc3C2=O)cc1OC
3. c1ccc([P+](CCC[P+](c2ccccc2)(c2ccccc2)c2ccccc2)(c2ccccc2)c2ccccc2)cc1
4. C[C@@]1(CBr)C[C@@](C)(/C=C/Cl)[C@@H](Cl)C[C@H]1Cl
5. CC(C)[C@H](O)C(=O)N[C@H]1Cc2ccc3c(c2)[C@]24C5=C(N=C(O5)[C@H](C(C)C)NC1=O)c1nc(Cl)c(o1)-c1c(Cl)[nH]c5cccc(c15)-c1cccc2c1N[C@H]4O3

## Result
1. 7.6 µM
2. > 100 µM
3. > 100 µM
4. 26.8 µM
5. 3.87 µM

Give TGI for each listed item.
1. C=C(C)C(=O)N1c2ccc(OC)cc2CC1C(=O)OCC (stereo not given)
2. CN(/C(=N\O)c1ccccc1)c1ccccc1
3. Cc1cc(C)c(N)c(C)c1N
4. COc1cc(C(=O)/C=C/c2c(-c3cccs3)nc3ccccn23)cc(OC)c1OC
5. CN1CCN(c2ccc3nc(-c4ccc5nc(-c6ccc(N(C)CCCl)cc6)[nH]c5c4)[nH]c3c2)CC1
6. O=C(Cc1ccccc1)NN1C(=O)C(Cl)C1c1ccccc1 (stereo not given)

## Result
["> 100 µM", "43.4 µM", "> 100 µM", "> 100 µM", "11.2 µM", "> 100 µM"]

Reference source for all entries: PubChem BioAssay (NCI)
